Parameter: Burkin Assay in Myoblasts, signal relative to DMSO. Scope: all listed entries.
# Test system: α7 integrin (LacZ reporter in α7βgal+/− myoblasts)
# ASSAY NAME: Myoblast α7+/LacZ integrin FDG assay (Burkin assay in myoblasts, 96-well)
# Type: cell-based, mouse
# DETAILS: 40 uM; α7+/LacZ myoblasts, 96-well
PROPERTY NAME: Burkin Assay in Myoblasts, signal relative to DMSO

{"ITEM SMILES": "Cc1ccccc1NC(=O)NCCCN1CCN(C)CC1", "EXPERIMENTAL VALUE": 1.189}
{"ITEM SMILES": "Cc1cccn2c(=O)c3cc(C(=O)NC4CCCCC4)n(C)c3nc12", "EXPERIMENTAL VALUE": 0.4323}
{"ITEM SMILES": "COc1ccc(CCNC(=O)c2cc(-c3cc(C)ccc3O)n[nH]2)cc1OC", "EXPERIMENTAL VALUE": 0.8855}
{"ITEM SMILES": "COC(=O)c1ccccc1NC(=O)c1cc[n+]([O-])cc1", "EXPERIMENTAL VALUE": 0.9062}

* * *

# System: α7 integrin (LacZ reporter in α7+/LacZ myotubes)
# ASSAY NAME: Myotube α7 integrin FDG assay (Burkin assay in myotubes, 96-well)
# Assay type: cell-based, mouse
# DETAILS: myotubes, 40 uM
Parameter: Burkin Assay in Myotubes, α7 integrin LacZ reporter signal relative to DMSO. Scope: all listed entries.
PROPERTY NAME: Burkin Assay in Myotubes, α7 integrin LacZ reporter signal relative to DMSO

{"MOLECULE": "COc1ccccc1C(=O)NCCOc1ccc(C(C)(C)C)cc1", "EXPERIMENTAL VALUE": 0.2183}
{"MOLECULE": "CCCCCCC1CC(=O)NC(=O)N1 (centres unmarked)", "EXPERIMENTAL VALUE": 1.2867}
{"MOLECULE": "Cn1c(O)c(C(C#N)=C2N=c3ccccc3=N2)c2ccccc21", "EXPERIMENTAL VALUE": 0.7073}
{"MOLECULE": "CC1(C)Cc2c(c(N3CCOCC3)nc3sc(C(=O)Nc4ccccc4)c(N)c23)CO1", "EXPERIMENTAL VALUE": 0.8243}
{"MOLECULE": "CC1CCCCN1c1ncnc(N)c1[N+](=O)[O-] (centres unmarked)", "EXPERIMENTAL VALUE": 1.631}
{"MOLECULE": "O=S(=O)(NC(=NC1CCCCC1)c1ccccc1F)c1ccccc1", "EXPERIMENTAL VALUE": 0.9515}
{"MOLECULE": "Cc1ccccc1OCC(=O)Nc1nnc(-c2ccco2)s1", "EXPERIMENTAL VALUE": 0.9096}
{"MOLECULE": "CC1CC(C)(C)NC(=S)N1CC(=O)N(C)Cc1ccccc1 (centres unmarked)", "EXPERIMENTAL VALUE": 1.026}
{"MOLECULE": "Cc1cccc(NC(=O)c2cc3ccccc3oc2=O)c1", "EXPERIMENTAL VALUE": 0.5729}
{"MOLECULE": "CCOC(=O)C1=C(CC)Nc2ccccc2N=C1NC(=O)c1ccc(OC)c(S(=O)(=O)N2CCCCC2C)c1 (centres unmarked)", "EXPERIMENTAL VALUE": 0.8056}
{"MOLECULE": "COc1ccc(CNC(=O)COC(=O)CCc2c[nH]c3ccccc23)cc1", "EXPERIMENTAL VALUE": 0.986}
{"MOLECULE": "COc1ccc(OC)c(NC(=O)CN2CCC(NC(=O)c3ccccc3C)CC2)c1", "EXPERIMENTAL VALUE": 0.9107}
{"MOLECULE": "Cc1cc(C(=O)Nc2cccc3ccccc23)c(C)o1", "EXPERIMENTAL VALUE": 0.9232}
{"MOLECULE": "O=C(Nc1cc(-c2nc3ccccc3s2)ccc1Cl)c1ccc2c(c1)OCO2", "EXPERIMENTAL VALUE": 0.6059}
{"MOLECULE": "c1ccc(-c2cn3c4c(sc3n2)CCCC4)cc1", "EXPERIMENTAL VALUE": 1.167}
{"MOLECULE": "CCCCN(CC)Cc1ccc(CNC(=S)Nc2ccccc2F)o1", "EXPERIMENTAL VALUE": 0.8547}
{"MOLECULE": "CCNC(=O)C(=O)Nc1cc2c3c(c1)CCN3C(=O)CC2", "EXPERIMENTAL VALUE": 0.7231}

* * *

# Test system: β-galactosidase in CMV-LacZ C2C12 myotubes
# ASSAY NAME: CMV-LacZ secondary screen in C2C12 myotubes (β-Gal stabilizing assay)
# Format: cell-based, mouse
# DETAILS: 40 uM; C2C12 CMV-LacZ myotubes; fold relative to DMSO
We label by threshold. Values of CMV-LACZ in Myotubes, signal relative to DMSO strictly beneath 1 are condition met. Values of 1 and up are condition not met.

{"COMPOUND": "Cc1ccc(S(=O)(=O)N2CN(CC3CCCO3)c3nc4ccccc4nc32)c(C)c1 (stereo not shown) [MLS001139288-01]", "LABEL VALUE": "condition not met"}
{"COMPOUND": "CC(C)N(CCO)C(=O)CCc1nnc(CCCc2ccccc2)o1 [MLS000733703-01]", "LABEL VALUE": "condition met"}
{"COMPOUND": "O=Cc1ccc(C(=O)OCC(=O)N2CCCC2)cc1 [MLS001172577-01]", "LABEL VALUE": "condition met"}
{"COMPOUND": "NS(=O)(=O)c1ccc(NC(=O)c2ccc(CNS(=O)(=O)c3cc(C(F)(F)F)ccc3Cl)cc2)cc1 [MLS000393110-01]", "LABEL VALUE": "condition met"}
{"COMPOUND": "Cc1cc(C)cc(-n2nnc(C(=O)NCc3ccccc3Cl)c2N)c1 [MLS000094770-01]", "LABEL VALUE": "condition met"}
{"COMPOUND": "COc1ccc(CCNC(=O)c2cc(-c3cc(C)ccc3O)n[nH]2)cc1OC [MLS000552080-01]", "LABEL VALUE": "condition met"}
{"COMPOUND": "COc1ccc(N2CCN(CCC3Oc4cc([N+](=O)[O-])ccc4NC3=O)CC2)cc1 (stereo not shown) [MLS000696445-01]", "LABEL VALUE": "condition met"}
{"COMPOUND": "N#CC1=C2SCN(c3ccccc3)CN2C(=O)CC1c1cccs1 (stereo not shown) [MLS000080654-01]", "LABEL VALUE": "condition not met"}

* * *

# Tested on: β-galactosidase in CMV-LacZ C2C12 myotubes
# ASSAY NAME: CMV-LacZ secondary screen in C2C12 myotubes (β-Gal stabilizing assay)
# Format: cell-based, mouse
# DETAILS: 1 uM; C2C12 CMV-LacZ myotubes; fold relative to DMSO
Parameter: CMV-LACZ in Myotubes, signal relative to DMSO. Scope: all listed entries.
PROPERTY NAME: CMV-LACZ in Myotubes, signal relative to DMSO

{"COMPOUND": "CCN(C(=O)c1ccc(S(=O)(=O)N(C)C)cc1)C(C)C(=O)Nc1ccc(C)cc1 (centres unmarked)", "EXPERIMENTAL VALUE": 0.9105}
{"COMPOUND": "CCOc1ccc2nc(Cl)sc2c1", "EXPERIMENTAL VALUE": 1.0286}
{"COMPOUND": "CC(C)CN(C(=O)c1cccc(Cl)c1)c1c(N)n(Cc2ccccc2)c(=O)[nH]c1=O", "EXPERIMENTAL VALUE": 1.2044}
{"COMPOUND": "CCC(C)n1[nH]c(=O)cc1N (centres unmarked)", "EXPERIMENTAL VALUE": 1.0848}
{"COMPOUND": "Br.COc1ccc(C(=O)CN2CCCCC2)cc1", "EXPERIMENTAL VALUE": 0.9610}
{"COMPOUND": "O=C(CCc1ccccc1)c1nnc(-c2ccccc2)o1", "EXPERIMENTAL VALUE": 1.0095}
{"COMPOUND": "CCOc1ccccc1NC(=O)COC(=O)CNS(=O)(=O)c1ccc(C)cc1", "EXPERIMENTAL VALUE": 0.9524}
{"COMPOUND": "CCCN(C(=O)c1ccc(S(=O)(=O)N2CCCC2)cc1)C1CCS(=O)(=O)C1 (centres unmarked)", "EXPERIMENTAL VALUE": 0.8352}
{"COMPOUND": "CCOC(=O)c1cc(C(=O)OCC)c(=O)[nH]c1SCc1ccccc1", "EXPERIMENTAL VALUE": 1.0168}
{"COMPOUND": "COc1ccc(CN2CCNC(=O)C2CC(=O)NCCc2c[nH]c3ccccc23)c(OC)c1 (centres unmarked)", "EXPERIMENTAL VALUE": 1.0038}
{"COMPOUND": "CC1CCN(C(CNS(=O)(=O)c2ccccc2)c2ccccc2)CC1 (centres unmarked)", "EXPERIMENTAL VALUE": 0.7874}
